Entries and their measured Maximal Blocking (%) follow.
molecular target: T1, hErbB3.hFc (soluble dimeric human ErbB3 extracellular domain fused to human Fc) (human); assay: blocking ELISA: antibody + 50 pM ErbB3-hFc on neuregulin1b-coated plate
T1 construct: called dimeric
T1 sequence (chain, as listed by the source limits assumed): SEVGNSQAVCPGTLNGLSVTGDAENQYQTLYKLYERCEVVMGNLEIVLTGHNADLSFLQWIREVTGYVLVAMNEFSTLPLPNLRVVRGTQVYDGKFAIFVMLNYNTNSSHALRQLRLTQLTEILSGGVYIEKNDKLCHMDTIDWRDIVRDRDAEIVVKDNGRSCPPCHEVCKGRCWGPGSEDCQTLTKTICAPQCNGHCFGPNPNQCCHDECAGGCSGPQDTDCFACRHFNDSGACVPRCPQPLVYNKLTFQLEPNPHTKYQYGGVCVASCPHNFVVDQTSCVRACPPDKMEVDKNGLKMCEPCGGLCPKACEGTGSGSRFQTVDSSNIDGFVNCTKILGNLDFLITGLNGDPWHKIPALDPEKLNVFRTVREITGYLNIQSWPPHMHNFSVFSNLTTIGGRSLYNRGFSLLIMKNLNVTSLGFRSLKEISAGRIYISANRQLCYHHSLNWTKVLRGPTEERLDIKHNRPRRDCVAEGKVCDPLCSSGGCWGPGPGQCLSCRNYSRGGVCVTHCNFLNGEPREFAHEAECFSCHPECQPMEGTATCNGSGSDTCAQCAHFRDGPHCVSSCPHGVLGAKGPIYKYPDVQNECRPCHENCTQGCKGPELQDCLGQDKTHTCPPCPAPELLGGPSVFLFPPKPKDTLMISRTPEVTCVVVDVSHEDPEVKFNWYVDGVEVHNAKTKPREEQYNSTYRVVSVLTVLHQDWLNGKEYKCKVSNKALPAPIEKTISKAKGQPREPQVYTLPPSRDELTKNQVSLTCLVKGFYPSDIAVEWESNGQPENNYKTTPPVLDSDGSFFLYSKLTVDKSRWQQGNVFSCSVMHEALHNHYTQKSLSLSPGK
Your answer is read as %, so omit the unit and give the number.

binder: H2M1936N (antibody, V domains shown, Hybridoma chimeric antibody: human variable domains, mouse IgG2 Fc (H2M prefix)) VH: EMQLVESGGGLVQPDRSLRLSCAASGFNFDNYAIHWVRQAPGKGLEWVSGISWNSGNIGYADSVKGRFTISRDNAKNSLFLLMNSLRPDDSALYYCTRGYNWNALSPMDVWGQGTTVTVSS VL: DIQMTQSPSSLSASVGDRVTVTCRASQGISNYLAWYQQKPGKVPKLLIYAASTLQSGVPSRFSGSGSGTDFTLTISSLQPEDVASYYCQNYNSAPMTFGQGTKVEIK
resultUnits: %
Maximal Blocking (%): 91
//
binder: H2M1937N (antibody, V domains shown, Hybridoma chimeric antibody: human variable domains, mouse IgG2 Fc (H2M prefix)) VH: QVQLQQWDAGLLKPSETLSLTCAVYGGSFSSYYWSWIRQPPGKGLEWIGEINHRGSTNYNPSLKSRVTISVDTSKNQFSLKLRSVTAADTAVYYCARGGVAARPDWHFFDYWGQGTLVTVSS VL: DIQMTQSPSSLSASVGDRVTITCRASQVIRNDLGWFQQRPGKAPKRLIYAASSLQSEVPSRFSGSGSGTEFTLTITSLQPEDFATYYCLQHNSYPLTFGQGTRLEIK
resultUnits: %
Maximal Blocking (%): 95

Query: Data request, read-out Maximal Blocking (%), for H2M1938N (antibody, V domains shown, Hybridoma chimeric antibody: human variable domains, mouse IgG2 Fc (H2M prefix)) VH: EVQLVESGGGVVRPGGSLRLSCAASGFTFDDYGMSWVRQVPGKGLEWVSGLNWNGGITGYTDSVKGRFTISRDNAKNSLYLQMNSLRAEDTAFYHCARDSGDQDAFDIWGQGTMVTVSS VL: QIVMTQSPATLSVSPGERATLSCRASQSITPYLAWYQQKPGQTPRLLIYGVSTRATGIPARFSGSGSGTEFTLTISSLQSEDFAVYYCQQYDNWYTFGQGTKLEIK
Response: 85

Query: Data request, read-out Maximal Blocking (%), for H2M1829N (antibody, V domains shown, Hybridoma chimeric antibody: human variable domains, mouse IgG2 Fc (H2M prefix)) VH: EVQLVESGGGVVRPGGSLRLSCVASGFTFDDYGMSWVRQAPGKGLECVSGINWNGGSTDYADSVKGRFTISRDNAKNSLYLQMNSLRAEDTALYHCARDGGDWDYFDLWGRGTLVTVSS VL: EILMTQSPATLSVSPGERATLSCRASQSVSSNLAWYQQKPGQAPRLLIYGASTRATGIPARFSGSGSGTEFTLTISSLQSEDFAIYYCQEYNDWPLTFGGGTKVEIK
Response: 98
